Field: Disease Control All Rates Average SEPTTR-184 1DP. Provide a value for each of the molecules that follow.
Tested on: Zymoseptoria tritici (SEPTTR-184)
Assay: Efficacy of target gene fragments (MgCytB dsRNA tiles) on wheat plants, SEPTTR-184
Format: in vivo
Conditions: 1DP (preventative); average of 200, 50, 12.5, 3.125 ppm
Reply with the number and its unit after it.

Data request: Answer with the recorded Disease Control All Rates Average SEPTTR-184 1DP for the molecule listed here: MgCytB-T1: 267 bp dsRNA of Zymoseptoria CytB region 1, location 364-630 (SEQ ID NO:4) (nucleic acid, listed as Zymoseptoria tritici, complementary strand of dsRNA) GTTCTGATGATGGCAACCGCATTCTTAGGGTATGTATTACCTTATGGTCAAATGTCTTTATGAGGAGCAACAGTTATAACTAACTTATTGAGTGCAATACCTTGAGTTGGACAAGACATAGTTGAATTCGTATGAGGTGGATTTTCTGTTAACAATGCAACATTGAACAGATTCTTTGCTCTACATTTCGTTTTACCGTTTGTGTTAGCTGCATTAGTTTTAATGCATCTAATAGCTTTACACGATACAGCGGGTTCAGGAAATCCT
Data returned: 66%

Data request: Answer with the recorded Disease Control All Rates Average SEPTTR-184 1DP for the molecule listed here: MgCytB-T6: 258 bp dsRNA of Zymoseptoria CytB region T6, location 775-1032 (SEQ ID NO:9) (nucleic acid, listed as Zymoseptoria tritici, complementary strand of dsRNA) GTTATGGCTAACCCTATGCAAACTCCACCTGCTATAGTGCCTGAATGATATTTATTACCTTTCTACGCTATACTAAGATCAATACCTAACAAACTATTAGGTGTGATCGCAATGTTTTCTGCTATATTGATTATAATGATAATGCCAATTACCGATTTAGGTAGAAGTAGAGGATTACAGTTTAGACCTTTAAGCAAGATCACATTTTACATATTTGTTGCTAACTTCTTAGTATTAATGCAATTAGGTGCTAATCAC
Data returned: 73%
